# Tested on: UACC-257 melanoma
# PROTOCOL DETAILS: NCI-60 one-dose screen, 48 h (100 = growth as untreated, 0 = no growth, -100 = all killed)
# RECORDED CONDITIONS: 10 µM
About 83,000 compounds went through this panel and 20% of them were active in at least one assay; those are over-represented in the sample as a whole.
ENDPOINT: growth (%)
Give just the numeric value; % need not be written.

| COMPOUND | growth, % |
| --- | --- |
| COc1ccc(-c2nsc3c2NC(=O)CC3c2ccc(F)cc2)cc1 (centres undefined) | 58.3 |
| COc1ccc(-c2nc(-c3nc4ccc(OC)cc4[nH]3)cc3c2[nH]c2ccccc23)cc1 | 70.5 |
| COc1ccc(-c2cc(-c3cccc(NS(C)(=O)=O)c3)nc(N)c2C#N)cc1 | 79.1 |
| COc1ccc(-c2nn(-c3cccc(NC(=O)c4cc(C(F)(F)F)cc(C(F)(F)F)c4)c3)cc2-c2ccncc2)cc1Cl | 62 |
| COc1ccc2c(c1)C(=O)c1c-2c(OCCN(C)C)nc2cc(OC)c(OC)cc12 | 103 |
| O=C(N/N=C\c1cc(Cl)ccc1[N+](=O)[O-])c1ccco1 | 95 |
| NC(=O)c1ccc(-c2cccc3c(=O)nc(N4CCOCC4)oc23)cc1 | 104 |
| Cc1nc2ccccc2c(N)c1-c1cc(C)c2c(C)nc3ccccc3c2n1 | 105 |

Q) Which growth reading was recorded for the compound Cn1c([N+](=O)[O-])cnc1/C=C1\Oc2ccc(Cl)cc2C1=O ?
A) -41.7

Q) Entry Cn1c([N+](=O)[O-])cnc1/C=C1\Oc2ccccc2C1=O please
A) -57

Q) Entry O=C(/C=C/c1cc2ccccc2[nH]c1=O)c1ccc2c(c1)OCO2 please
A) 94.2

Q) Entry CC(C)(Cl)CCC1=C(Cl)C(=O)c2ccccc2C1=O please
A) 39.2

Q) Entry Cc1ccc(-c2nc(/C=C3/C(=O)N(C)c4ccc(F)cc43)c3ccccn23)cc1 please
A) 106

Q) Entry Cc1cc(C)c(NC(=O)c2sc3nc4c(cc3c2N)C(=O)CCC4)c(C)c1 please
A) 48.7

Q) Entry N=C(N)c1ccc(-c2ccc(-c3cccs3)s2)s1 please
A) -68.5

Q) Entry N#Cc1ncc(-c2cc(F)c(F)c(F)c2)c(NC2CCCCCC2)n1 please
A) 93.6

Q) Entry COc1cc(C(=O)/C=C/c2cc(-c3cc(OC)c(OC)c(OC)c3)n[nH]2)cc(OC)c1OC please
A) -1.5

Q) Entry COc1ccc(C(=O)/C=C/c2cc(-c3cc(OC)c(OC)c(OC)c3)n[nH]2)cc1 please
A) 70.8

Q) Entry COc1ccc(OC)c(/C=C/c2nc(SC)n(-c3ccc(Cl)cc3)n2)c1 please
A) 87.3

Q) Entry COc1ccccc1CNCCN1C(=O)c2ccc3c4c(ccc(c24)C1=O)C(=O)N(CCNCc1ccccc1OC)C3=O please
A) -96.4

Q) Entry CN(C)Cc1cn(-c2ncc(-c3ccc(C(F)(F)F)cc3)c(NC3CCCCCC3)n2)nn1 please
A) 82.8

Q) Entry CCOC(=O)C1CCc2c(ccc3ccccc23)N1CCC#N (centres undefined) please
A) 104

Q) Entry CCN(CC)CCOc1nc2ccccc2c2c1-c1ccc(OC)cc1C2=O please
A) -18.8

Q) Entry CCOC(=O)N1C/C(=C/c2ccc(F)cc2)C(=O)/C(=C/c2ccc(F)cc2)C1 please
A) -14.7

Q) Entry COc1ccc(/C=C2/CN(CCC#N)C/C(=C\c3ccc(OC)cc3)C2=O)cc1 please
A) 17.4

Q) Entry CS(=O)(=O)Nc1ccc(Nc2c3ccccc3nc3cc(N)ccc23)cc1 please
A) 0.44

Q) Entry O=C1C(c2ccccc2)C2C=CC(C2)N1O (centres undefined) please
A) 105

Q) Entry C#Cc1ccc(-n2c(/C=C/c3cc(OC)cc(OC)c3)nc3ncccc3c2=O)cc1 please
A) 66.3

Q) Entry COc1ccc(-c2nc3sccn3c2-c2nc3c([nH]2)C(=O)c2ccccc2C3=O)cc1 please
A) 89.2
